# Study target: RBP4 (Homo sapiens, UniProt P02753)
# Procedure text: HTRF competition assay: displacement of Cy5-labeled retinol from RBP4
# Format: binding
# Condition description: 10 nM biotin-labeled RBP4, streptavidin-Europium cryptate 1 nM, room temperature 30 min
Readout type: pIC50
As a rule, pIC50 stands for the negative log10 of the concentration, concentration in M.

COC(=O)Cc1csc(-c2cc(C(F)(F)F)cc(C(F)(F)F)c2)n1 5.61
O=C(O)Cc1csc(-c2cc(Cl)cc(C(F)(F)F)c2)n1 7.06
O=C(O)Cc1csc(-c2ccc(F)c(C(F)(F)F)c2)n1 6.36
O=C(O)Cc1csc(-c2cccc(C(F)(F)F)c2Cl)n1 5.62

// switching to the query compound
IN: Recorded pIC50 of O=C(O)Cc1coc(-c2cc(F)c(F)c(C(F)(F)F)c2)n1 , please.
OUT: 6.58
